# pIC50 per record follows
Biological target: human recombinant LRRK2 protein (Homo sapiens, UniProt Q5S007)
Sequence (Q5S007 whole entry): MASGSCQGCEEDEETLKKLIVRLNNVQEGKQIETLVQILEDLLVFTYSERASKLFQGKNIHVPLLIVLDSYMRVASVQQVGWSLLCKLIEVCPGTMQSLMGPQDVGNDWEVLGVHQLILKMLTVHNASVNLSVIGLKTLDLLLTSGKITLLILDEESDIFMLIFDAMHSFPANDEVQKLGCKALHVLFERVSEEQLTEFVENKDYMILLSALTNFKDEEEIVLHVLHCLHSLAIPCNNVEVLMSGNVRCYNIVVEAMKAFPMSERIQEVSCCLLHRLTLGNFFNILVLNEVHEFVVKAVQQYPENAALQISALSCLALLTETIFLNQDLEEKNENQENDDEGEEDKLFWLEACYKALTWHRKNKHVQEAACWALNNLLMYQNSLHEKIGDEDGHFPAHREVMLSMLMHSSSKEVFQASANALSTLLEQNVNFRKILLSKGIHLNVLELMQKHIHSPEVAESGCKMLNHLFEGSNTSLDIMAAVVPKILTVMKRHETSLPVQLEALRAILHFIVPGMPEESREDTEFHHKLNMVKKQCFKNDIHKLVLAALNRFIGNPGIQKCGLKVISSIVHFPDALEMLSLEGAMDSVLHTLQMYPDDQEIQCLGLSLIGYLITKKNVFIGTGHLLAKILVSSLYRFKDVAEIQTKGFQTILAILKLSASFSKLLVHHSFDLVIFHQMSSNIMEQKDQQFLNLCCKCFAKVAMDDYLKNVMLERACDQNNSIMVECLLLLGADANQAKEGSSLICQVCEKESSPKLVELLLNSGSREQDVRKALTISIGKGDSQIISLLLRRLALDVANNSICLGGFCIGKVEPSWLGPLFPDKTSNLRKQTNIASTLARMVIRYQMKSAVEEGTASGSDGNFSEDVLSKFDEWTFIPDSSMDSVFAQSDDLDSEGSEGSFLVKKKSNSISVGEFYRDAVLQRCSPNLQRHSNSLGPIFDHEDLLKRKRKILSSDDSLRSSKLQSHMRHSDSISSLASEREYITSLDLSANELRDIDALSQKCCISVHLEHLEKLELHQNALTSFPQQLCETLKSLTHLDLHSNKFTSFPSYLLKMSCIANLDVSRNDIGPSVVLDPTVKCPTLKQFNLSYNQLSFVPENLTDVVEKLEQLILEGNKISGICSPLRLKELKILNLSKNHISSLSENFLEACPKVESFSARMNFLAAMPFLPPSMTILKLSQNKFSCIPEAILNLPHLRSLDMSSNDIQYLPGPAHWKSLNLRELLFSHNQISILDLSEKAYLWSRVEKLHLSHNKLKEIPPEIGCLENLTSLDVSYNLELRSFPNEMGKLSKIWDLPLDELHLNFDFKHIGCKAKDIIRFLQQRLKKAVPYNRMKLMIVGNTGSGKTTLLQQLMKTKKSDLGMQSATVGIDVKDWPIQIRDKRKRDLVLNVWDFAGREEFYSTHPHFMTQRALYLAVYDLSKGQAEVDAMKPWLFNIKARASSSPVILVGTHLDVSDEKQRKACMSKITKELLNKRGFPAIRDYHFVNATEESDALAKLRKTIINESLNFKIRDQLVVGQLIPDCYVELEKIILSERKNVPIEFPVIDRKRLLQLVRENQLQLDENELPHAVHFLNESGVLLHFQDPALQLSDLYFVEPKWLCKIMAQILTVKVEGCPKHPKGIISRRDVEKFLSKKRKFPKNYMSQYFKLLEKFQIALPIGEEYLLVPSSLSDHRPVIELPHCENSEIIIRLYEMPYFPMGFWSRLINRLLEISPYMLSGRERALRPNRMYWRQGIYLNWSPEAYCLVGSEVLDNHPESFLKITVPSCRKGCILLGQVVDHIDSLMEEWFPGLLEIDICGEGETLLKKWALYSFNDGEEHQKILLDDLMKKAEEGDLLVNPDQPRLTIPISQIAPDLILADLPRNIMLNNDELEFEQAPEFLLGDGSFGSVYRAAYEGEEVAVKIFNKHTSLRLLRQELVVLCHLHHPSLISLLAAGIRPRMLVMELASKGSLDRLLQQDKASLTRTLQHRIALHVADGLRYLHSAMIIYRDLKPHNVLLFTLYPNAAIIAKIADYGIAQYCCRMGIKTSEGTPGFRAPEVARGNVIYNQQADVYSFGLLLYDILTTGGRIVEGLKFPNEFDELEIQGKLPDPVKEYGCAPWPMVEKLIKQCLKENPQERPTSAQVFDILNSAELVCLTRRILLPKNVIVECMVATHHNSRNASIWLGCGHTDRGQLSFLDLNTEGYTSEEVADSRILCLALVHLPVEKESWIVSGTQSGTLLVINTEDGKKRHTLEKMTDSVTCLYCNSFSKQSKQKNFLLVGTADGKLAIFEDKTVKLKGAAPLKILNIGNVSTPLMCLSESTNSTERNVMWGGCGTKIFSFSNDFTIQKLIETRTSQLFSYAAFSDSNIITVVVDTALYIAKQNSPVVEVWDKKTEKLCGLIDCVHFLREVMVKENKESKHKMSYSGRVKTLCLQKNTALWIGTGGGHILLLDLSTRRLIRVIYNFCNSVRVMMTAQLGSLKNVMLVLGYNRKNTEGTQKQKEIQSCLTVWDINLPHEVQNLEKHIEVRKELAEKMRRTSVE
Assay: LRRK2 kinase activity assay (ADP-Glo, LRRKtide peptide)
Conditions: human recombinant LRRK2 wt, LRRKtide peptide and ATP, 1 h at 37° C.
pIC50: −log10 of the molar value.

Check the records and state pIC50 for COCC1CCOc2ccc3[nH]nc(c3c2)-c2cccc(c2)OCC(=O)N1 (single isomer, unassigned) [Example 152]
> 7.00

Hello, please tell me recorded pIC50 for this one: CN1CCCNc2ccc3[nH]nc(c3c2)-c2cncc(c2)OCC1=O [Example 190]
> 7.00

Return pIC50 for the following compound: C[C@@H]1CCOC[C@H](C)Oc2ccc3[nH]nc(c3c2)-c2ccnc(n2)O1 [Example 53]
> 8.00

Indicate its recorded pIC50; the compound in question is C[C@@H]1CCn2cc(cn2)-c2n[nH]c3ccc(cc23)O[C@H](C)CCO1 [Example 98]
> 8.00

Please supply the value of reported pIC50 for the item C[C@@H]1COCCOCC(F)n2cc(cn2)-c2n[nH]c3ccc(cc23)O1 (single isomer, unassigned) [Example 105]
> 8.00

----------
Target: human recombinant LRRK2 protein (Homo sapiens)
Test: LRRK2 kinase activity assay (ADP-Glo, LRRKtide peptide)
Conditions: human recombinant LRRK2 wt, LRRKtide peptide and ATP, 1 h at 37° C.
pIC50: −log10 of the molar value.
property: pIC50

Here's what some known entries look like.
>>> endpoint_result("C[C@H]1CCOCCOCC2=NC=C(S2)c2n[nH]c3ccc(cc23)O1")
"> 8.00"
>>> endpoint_result("O=C1COc2cc(cc(N3CCNCC3)c2)-c2n[nH]c3ccc(cc23)OCCCN1")
"> 8.00"
>>> endpoint_result("C[C@@H]1CNCC[C@H](C)Oc2ccc3[nH]nc(c3c2)-c2cncc(c2)O1 (single isomer, unassigned)")
"> 8.00"
>>> endpoint_result("C[C@H]1CCOCCOc2nccc(n2)-c2n[nH]c3ccc(cc23)N1")
"> 7.00"
>>> endpoint_result("C[C@@H]1CCn2ncc(n2)-c2n[nH]c3ccc(cc23)O[C@H](C)CCO1")
"> 8.00"

Check the records and state pIC50 for C[C@@H]1OCCOCCn2cc(cn2)-c2n[nH]c3ccc(cc23)O[C@@H]1C
> 8.00

Dear colleague, please send me the reported pIC50 for O=C1COc2cc(C3=CCCOC3)cc(c2)-c2n[nH]c3ccc(cc23)OCCCN1 when you can.
> 8.00

Consider the compound C[C@@H]1CNCCO[C@@H](C)c2cncc(c2)-c2n[nH]c3ccc(cc23)O1 (single isomer, unassigned) . State its measured pIC50.
> 6.00

----------
Target: human recombinant LRRK2 protein (Homo sapiens)
Assay: LRRK2 kinase activity assay (ADP-Glo, LRRKtide peptide)
Settings: human recombinant LRRK2 wt, LRRKtide peptide and ATP, 1 h at 37° C.
property: IC50

Examples from the recorded data:
>>> endpoint_result("C[C@H]1CCCOCCn2ncc(n2)-c2n[nH]c3ccc(cc23)O1")
"< 10 nM"
>>> endpoint_result("Cc1cc2nc(n1)OCCCOC[C@H](C)Oc1ccc3[nH]nc-2c3c1")
"< 10 nM"
>>> endpoint_result("C[C@@H]1CCNC(=O)CCn2ncc(n2)-c2n[nH]c3ccc(cc23)O1")
"< 10 nM"
>>> endpoint_result("C[C@@H]1COCCOCCOc2ccc3[nH]nc(c3c2)-c2cnn1c2")
"< 10 nM"

Recall and state the measured IC50 for CN1CCCOc2ccc3[nH]nc(c3c2)-c2cc(C#N)cc(c2)OCC1=O .
< 100 nM

Look up IC50 of CN1CCOc2ccc3[nH]nc(c3c2)-c2cccc(c2)OCCC1=O and report it.
< 100 nM

Retrieve IC50 measured for C[C@@H]1CCOCCOCCn2cc(cn2)-c2n[nH]c3ccc(cc23)O1 and print it.
< 10 nM

Give a short answer stating reported IC50 for FC(F)(F)c1cc2cc(c1)-c1n[nH]c3ccc(cc13)OCCCNCCO2 .
< 10 nM

Check the records and state IC50 for C[C@H]1COc2cncc(n2)-c2n[nH]c3ccc(cc23)O[C@@H](C)CCO1
< 100 nM

Where these numbers come from: patent US20240246992A1
